system: barnyardgrass (Echinochloa crus-galli); experiment: Test G Pre-Emergence Protocol; type: in vivo; conditions: Echinochloa crus-galli, pre-emergence, 312 h, 250 g ai/ha, evaluated after 13 days, read-out: Barnyardgrass damage rating (100=total damage to plant; 0=no damage to plant)
parameter-measured: pest or weed control at 250 g/ha (%)

* CN1C[C@@H](c2ccc(C(F)(F)F)cc2)[C@H](C(=O)Nc2cnc(Cl)cn2)C1=O (racemic) | 0
* Cc1c(NC(=O)[C@H]2C(=O)N(C)C[C@@H]2c2ccc(C(F)(F)F)cc2)cccc1[N+](=O)[O-] (racemic) | 30
* CN1C[C@@H](c2ccc(C(F)(F)F)cc2)[C@H](C(=O)Nc2ccc(Cl)nn2)C1=O (racemic) | 80
* CN1C[C@H](c2ccc(C(F)(F)F)cc2)[C@@H](C(=O)Nc2ccc3ncccc3n2)C1=O (racemic) | 0
* Cc1cccc(NC(=O)[C@@H]2C(=O)N(C)C[C@H]2c2ccc(C(F)(F)F)cc2)c1Br (racemic) | 80
* CN1C[C@@H](c2ccc(C(F)(F)F)cc2)[C@H](C(=O)Nc2ccnc(C(F)(F)F)c2)C1=O (racemic) | 0
* Cc1ccc([C@H]2CN(C)C(=O)[C@@H]2C(=O)Nc2cccnc2F)cc1 | 90
* CCOC(=O)c1cccc([C@H]2CN(C)C(=O)[C@@H]2C(=O)Nc2ccccc2F)c1 (racemic) | 0
* CN1C[C@H](c2cc(C(C)(C)C)ncn2)[C@@H](C(=O)Nc2cccc(F)c2F)C1=O (racemic) | 20
* Cc1ccc([C@H]2CN(C)C(=O)[C@@H]2C(=O)Nc2ccc(F)nc2F)cc1 | 90
* CN1C[C@@H](c2ccc(C(F)(F)F)cc2)[C@H](C(=O)Nc2ccnc(F)c2)C1=O (racemic) | 0
* COc1cccc(NC(=O)[C@@H]2C(=O)N(C)C[C@H]2c2ccc(C(F)(F)F)cc2)n1 (racemic) | 70
* CN1C[C@@H](c2ccc(C(F)(F)F)cc2)[C@H](C(=O)Nc2cccc(F)n2)C1=O | 0
* CN1C[C@@H](c2ccc(C(F)(F)F)cc2)[C@H](C(=O)Nc2ccnc(Cl)c2F)C1=O (racemic) | 20
* COc1c(F)cc(C2CN(C)C(=O)C2C(=O)Nc2cccc(F)c2F)cc1Cl (stereo not shown) | 80
* Cc1cc(C2CN(C)C(=O)C2C(=O)Nc2cccc(F)c2F)cc(C)c1Cl (stereo not shown) | 70

Cited source for all entries: patent US12077503B2
